Would you kindly list pIC50 for each of these molecules?
Molecular target: Nav 1.7 (Homo sapiens (Human))
Sequence (Q15858 whole entry): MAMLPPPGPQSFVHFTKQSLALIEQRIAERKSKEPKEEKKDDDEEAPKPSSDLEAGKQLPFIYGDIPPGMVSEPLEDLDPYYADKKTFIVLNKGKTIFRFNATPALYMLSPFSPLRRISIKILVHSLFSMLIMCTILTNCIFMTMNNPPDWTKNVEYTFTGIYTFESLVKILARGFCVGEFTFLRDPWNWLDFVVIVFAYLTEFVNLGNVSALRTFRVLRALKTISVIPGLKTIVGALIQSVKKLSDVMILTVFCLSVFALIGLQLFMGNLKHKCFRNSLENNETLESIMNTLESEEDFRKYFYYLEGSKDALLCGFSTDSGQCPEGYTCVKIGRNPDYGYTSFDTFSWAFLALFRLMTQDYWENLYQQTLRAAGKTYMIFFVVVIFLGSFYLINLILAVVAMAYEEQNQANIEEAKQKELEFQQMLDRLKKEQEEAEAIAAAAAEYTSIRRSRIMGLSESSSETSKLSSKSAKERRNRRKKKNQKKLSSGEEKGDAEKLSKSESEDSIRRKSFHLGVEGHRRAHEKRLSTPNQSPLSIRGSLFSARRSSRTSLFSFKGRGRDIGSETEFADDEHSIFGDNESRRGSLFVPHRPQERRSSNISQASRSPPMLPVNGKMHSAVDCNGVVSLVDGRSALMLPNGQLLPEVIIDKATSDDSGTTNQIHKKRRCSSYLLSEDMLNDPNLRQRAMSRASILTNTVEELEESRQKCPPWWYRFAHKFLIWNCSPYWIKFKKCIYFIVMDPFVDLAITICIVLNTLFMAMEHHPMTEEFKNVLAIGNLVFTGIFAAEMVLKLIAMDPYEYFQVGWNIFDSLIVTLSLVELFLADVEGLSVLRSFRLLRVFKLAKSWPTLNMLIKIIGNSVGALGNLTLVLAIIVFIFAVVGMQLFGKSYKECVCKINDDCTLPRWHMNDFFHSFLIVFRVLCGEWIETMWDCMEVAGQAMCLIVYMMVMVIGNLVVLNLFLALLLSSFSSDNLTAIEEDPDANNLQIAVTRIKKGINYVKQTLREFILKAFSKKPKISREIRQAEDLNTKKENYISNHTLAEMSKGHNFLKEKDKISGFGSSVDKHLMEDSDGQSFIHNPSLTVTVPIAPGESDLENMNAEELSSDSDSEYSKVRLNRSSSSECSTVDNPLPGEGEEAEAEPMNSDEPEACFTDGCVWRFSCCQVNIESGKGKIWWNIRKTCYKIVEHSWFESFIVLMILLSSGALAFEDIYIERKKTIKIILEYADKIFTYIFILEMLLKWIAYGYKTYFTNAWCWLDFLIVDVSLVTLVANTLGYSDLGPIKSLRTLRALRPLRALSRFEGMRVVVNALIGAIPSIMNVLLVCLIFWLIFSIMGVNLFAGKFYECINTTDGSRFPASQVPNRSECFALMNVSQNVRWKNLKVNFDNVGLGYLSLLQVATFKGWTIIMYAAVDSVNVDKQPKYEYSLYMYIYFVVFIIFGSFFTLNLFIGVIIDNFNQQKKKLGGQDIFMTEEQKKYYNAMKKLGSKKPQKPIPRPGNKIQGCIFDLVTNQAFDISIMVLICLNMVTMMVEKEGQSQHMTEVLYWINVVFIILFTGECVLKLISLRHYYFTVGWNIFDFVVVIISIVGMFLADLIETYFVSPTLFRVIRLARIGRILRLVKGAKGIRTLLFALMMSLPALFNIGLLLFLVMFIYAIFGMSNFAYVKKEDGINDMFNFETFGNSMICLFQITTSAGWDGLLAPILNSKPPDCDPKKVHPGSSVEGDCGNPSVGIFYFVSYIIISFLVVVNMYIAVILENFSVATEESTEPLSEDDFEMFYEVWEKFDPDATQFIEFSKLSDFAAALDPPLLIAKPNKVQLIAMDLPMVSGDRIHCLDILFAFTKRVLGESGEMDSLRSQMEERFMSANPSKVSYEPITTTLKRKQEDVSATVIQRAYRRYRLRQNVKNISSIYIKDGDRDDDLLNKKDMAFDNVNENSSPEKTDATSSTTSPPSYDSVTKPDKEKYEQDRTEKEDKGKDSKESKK
Assay: Nav 1.7 in vitro PX assay (PatchXpress whole cell voltage clamp);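 note: holding potential set for 20 to 50% inactivation, sodium current evoked by a 20 ms step to −10 mV, peak current inhibition read after compound exposure, 3–5 cells per concentration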
Assay type: cell-based
Conditions: HEK 293 cells stably transfected with human Nav1.7; PatchXpress; partially inactivated state
Please treat pIC50 as minus the base-10 logarithm of the molar concentration.

Query: May I ask what pIC50 has been recorded for COc1cc(-c2cccc(C(F)(F)F)c2)c(F)cc1-c1c2ccc(S(=O)(=O)Nc3ccon3)cc2cc(=O)n1C (atropisomer, axis not shown; (P)) [Example 551] ?
Response: 7.55

Query: Same question for COc1cc(-c2cccc(F)c2)c(Cl)cc1-c1[nH]c(=O)cc2cc(S(=O)(=O)Nc3ccon3)ccc12 [Example 394, 2,2,2-trifluoroacetate] please.
Response: 7.39

Query: Same question for COc1cc(-c2cccc(F)c2)c(Cl)cc1-c1c(C)cnc2cc(S(=O)(=O)Nc3ccon3)ccc12 (atropisomer, axis not shown; (P)) [Example 331] please.
Response: 4.98

Query: Same question for "COc1cc(-c2cccc(C(F)(F)F)c2)c(C#N)cc1-c1nccc2cc(S(=O)(=O)Nc3ncc(F)cn3)ccc12" please.
Response: 7.03

Query: Same question for COc1cc(-c2cccc(F)c2)c(Cl)cc1-c1c(C)cnc2cc(S(=O)(=O)Nc3ccon3)ccc12 (atropisomer, axis not shown; (M)) [Example 330] please.
Response: 6.30

Query: Same question for "COc1cc(-c2ccc(C(F)(F)F)cc2)c(F)cc1-c1nccc2cc(S(=O)(=O)Nc3ccon3)ccc12" please.
Response: 6.63

Query: Same question for "COc1cc(-c2cc(F)cc(F)c2)c(C)cc1-c1ncnc2cc(S(=O)(=O)Nc3ncccn3)ccc12" please.
Response: 7.03

Query: Same question for "COc1cc(-c2cccc(F)c2)c(Cl)cc1-c1[nH]c(=O)cc2cc(S(=O)(=O)Nc3ncccn3)ccc12" please.
Response: 7.35

Query: Same question for "COc1cc(-c2cc(Cl)ccc2C)c(C)cc1-c1ncnc2cc(S(=O)(=O)Nc3ccon3)ccc12" please.
Response: 7.39

Query: Same question for "COc1cc(-c2cccc(F)c2)c(F)cc1-c1nc(Cl)cc2cc(S(=O)(=O)Nc3ccon3)ccc12" please.
Response: 6.80

Query: Same question for "COc1cc(-c2cccc(Cl)c2)c(F)cc1-c1ncnc2cc(S(=O)(=O)Nc3ccsn3)ccc12" please.
Response: 7.05

Query: Same question for "COc1cc(-c2cccc(Cl)c2)c(F)cc1-c1ncnc2cc(S(=O)(=O)Nc3ncccn3)ccc12" please.
Response: 7.32

Query: Same question for "COc1cc(-c2ccc(F)c(C3CC3)c2)c(C)cc1-c1ncnc2cc(S(=O)(=O)Nc3ccon3)ccc12" please.
Response: 7.47

The measured values listed here are drawn from patent US9776995B2.
